The following compounds are shown together with reported viscosity values.
Conditions: 298.15 K; 101.33 kPa; Liquid; Concentric cylinders viscometry
MEASURED_METRIC: viscosity (mPa·s)

CCOC(=O)C(C)O (racemic) [DL-ethyl lactate]    2.39
CCC(C)=O    0.3888
Cc1ccccc1    0.567
CN1CCCC1=O    1.757

====

The following compounds are shown together with reported mass density values.
Details: 298.15 K; 101.33 kPa; Liquid; Vibrating tube method
Numbers after ± are expanded uncertainties.
MEASURED_METRIC: mass density

Cc1ccccc1    862.206 ± 0.12 kg/m3
CCOC(=O)C(C)O (racemic) [DL-ethyl lactate]    1028.39 ± 0.25 kg/m3
CN1CCCC1=O    1030.45 ± 0.099 kg/m3
CCC(C)=O    800.872 ± 0.14 kg/m3

From: the NIST ThermoML archive (doi:10.1016/j.fluid.2015.04.017)
